# Target entity: IL-18R on HEK-Blue IL18R reporter cells (InvivoGen, #hkb-hmil18)
# Experimental protocol: cell-based or functional assay
Parameter measured: Potency loss Mutant/NWT, HEK-Blue IL18R reporter assay
# do not omit the unit; it follows the number

Which Potency loss Mutant/NWT, HEK-Blue IL18R reporter assay is reported for this binder? Modified IL-18 polypeptide of SEQ ID NO: 2 (E06K, K53A, S55A) (ligand) YFGKLKSKLSVIRNLNDQVLFIDQGNRPLFEDMTDSDCRDNAPRTIFIISMYADAQPRGMAVTISVKCEKISTLSCENKIISFKEMNPPDNIKDTKSDIIFFQRSVPGHDNKMQFESSSYEGYFLACEKERDLFKLILKKEDELGDRSIMFTVQNED 81.8 fold

Next up: Modified IL-18 polypeptide of SEQ ID NO: 70 (E6K, K53A, C38S, C76S, C127S) (ligand) YFGKLKSKLSVIRNLNDQVLFIDQGNRPLFEDMTDSDSRDNAPRTIFIISMYADSQPRGMAVTISVKCEKISTLSSENKIISFKEMNPPDNIKDTKSDIIFFQRSVPGHDNKMQFESSSYEGYFLASEKERDLFKLILKKEDELGDRSIMFTVQNED 1.11 fold

Next up: Modified IL-18 polypeptide of SEQ ID NO: 71 with a 30 kDa PEG attached at residue C68 (E6K, C38S, K53A, C68-30kDPEG) (ligand, 30 kDa PEG on Cys 68 (30 kDa DBCO-polyethylene glycol clicked to a bromoacetamido-PEG5-azide linker on the cysteine), also called 71 + PEG) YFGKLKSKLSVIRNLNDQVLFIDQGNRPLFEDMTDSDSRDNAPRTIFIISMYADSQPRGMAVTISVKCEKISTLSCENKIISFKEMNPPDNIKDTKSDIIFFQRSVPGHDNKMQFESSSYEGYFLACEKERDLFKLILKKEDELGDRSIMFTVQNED 0.56 fold

Next up: Modified IL-18 polypeptide of SEQ ID NO: 18 (E06K, K53A, T63A) (ligand) YFGKLKSKLSVIRNLNDQVLFIDQGNRPLFEDMTDSDCRDNAPRTIFIISMYADSQPRGMAVAISVKCEKISTLSCENKIISFKEMNPPDNIKDTKSDIIFFQRSVPGHDNKMQFESSSYEGYFLACEKERDLFKLILKKEDELGDRSIMFTVQNED 0.53 fold

Next up: Modified IL-18 polypeptide of SEQ ID NO: 10 (E06K, K53A, S55A, T63A) (ligand) YFGKLKSKLSVIRNLNDQVLFIDQGNRPLFEDMTDSDCRDNAPRTIFIISMYADAQPRGMAVAISVKCEKISTLSCENKIISFKEMNPPDNIKDTKSDIIFFQRSVPGHDNKMQFESSSYEGYFLACEKERDLFKLILKKEDELGDRSIMFTVQNED 0.24 fold

Next up: Modified IL-18 polypeptide of SEQ ID NO: 22 (E06K, K53A, C38S, C68S, C76S, C127S, K70C) (ligand) YFGKLKSKLSVIRNLNDQVLFIDQGNRPLFEDMTDSDSRDNAPRTIFIISMYADSQPRGMAVTISVKSECISTLSSENKIISFKEMNPPDNIKDTKSDIIFFQRSVPGHDNKMQFESSSYEGYFLASEKERDLFKLILKKEDELGDRSIMFTVQNED 2.74 fold

Next up: Modified IL-18 polypeptide of SEQ ID NO: 71 (E6K, C38S, K53A) (ligand) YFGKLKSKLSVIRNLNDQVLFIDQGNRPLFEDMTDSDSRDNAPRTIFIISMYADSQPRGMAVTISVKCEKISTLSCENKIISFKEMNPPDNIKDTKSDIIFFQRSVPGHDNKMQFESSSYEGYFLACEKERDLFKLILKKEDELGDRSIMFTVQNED 0.26 fold
